target: HER-2 (Homo sapiens, UniProt P04626); construct: purchased Abcam ab60866; experiment: HER-2 inhibitory assay (ADP-Glo kinase assay); type: biochemical; conditions: read-out: HER-2 inhibition IC50 ± SEM
Sequence (P04626 23-1255): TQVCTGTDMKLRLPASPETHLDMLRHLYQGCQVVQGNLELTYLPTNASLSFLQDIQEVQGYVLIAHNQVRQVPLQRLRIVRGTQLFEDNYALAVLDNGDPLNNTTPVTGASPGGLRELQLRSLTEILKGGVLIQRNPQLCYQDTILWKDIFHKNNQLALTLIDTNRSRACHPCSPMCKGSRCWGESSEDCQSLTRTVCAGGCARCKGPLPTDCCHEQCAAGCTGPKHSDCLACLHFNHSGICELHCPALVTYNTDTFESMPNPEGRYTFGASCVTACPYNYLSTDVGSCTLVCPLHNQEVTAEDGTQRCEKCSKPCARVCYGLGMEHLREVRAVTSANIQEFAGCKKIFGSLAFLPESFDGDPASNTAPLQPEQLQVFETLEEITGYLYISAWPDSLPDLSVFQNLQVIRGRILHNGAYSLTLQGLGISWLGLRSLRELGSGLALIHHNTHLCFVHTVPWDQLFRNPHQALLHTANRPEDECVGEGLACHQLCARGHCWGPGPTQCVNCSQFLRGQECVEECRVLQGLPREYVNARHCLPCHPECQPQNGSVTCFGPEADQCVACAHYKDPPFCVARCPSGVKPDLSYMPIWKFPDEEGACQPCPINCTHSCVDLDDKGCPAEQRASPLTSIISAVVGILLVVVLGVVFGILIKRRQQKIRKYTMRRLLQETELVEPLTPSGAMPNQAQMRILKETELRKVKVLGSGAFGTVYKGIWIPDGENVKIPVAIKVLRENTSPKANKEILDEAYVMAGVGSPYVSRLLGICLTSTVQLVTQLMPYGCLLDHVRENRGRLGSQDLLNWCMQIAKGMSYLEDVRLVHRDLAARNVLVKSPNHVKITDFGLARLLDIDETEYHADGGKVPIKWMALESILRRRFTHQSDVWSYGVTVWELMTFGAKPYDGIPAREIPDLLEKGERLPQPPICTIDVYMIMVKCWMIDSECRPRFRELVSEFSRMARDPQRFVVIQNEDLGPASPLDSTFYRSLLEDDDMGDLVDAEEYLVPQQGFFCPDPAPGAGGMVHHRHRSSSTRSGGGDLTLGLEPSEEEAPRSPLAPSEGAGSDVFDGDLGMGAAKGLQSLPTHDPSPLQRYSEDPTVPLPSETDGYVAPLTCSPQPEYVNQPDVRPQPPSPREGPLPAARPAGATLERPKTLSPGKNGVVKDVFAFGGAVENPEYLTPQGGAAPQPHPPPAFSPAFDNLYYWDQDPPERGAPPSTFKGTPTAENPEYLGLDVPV
Each record here notes measured IC50.
attribute_measured: IC50 (µM)

molecule: COc1ccc(C2C(C#N)=C(N)Oc3c2c(=O)n(C)c2ccccc32)cc1 (centres unmarked) [Compound 5i]
measurement_target: HER-2 (Homo sapiens, UniProt P04626)
reported_result: 0.031
//
molecule: Cn1c(=O)c2c(c3ccccc31)OC(N)=C(C#N)C2c1ccccc1 (centres unmarked) [Compound 5e]
measurement_target: HER-2 (Homo sapiens, UniProt P04626)
reported_result: 0.021
//
molecule: Cc1ccc2c3c(c(=O)[nH]c2c1)C(c1ccccc1)C(C#N)=C(N)O3 (centres unmarked) [Compound 5d]
measurement_target: HER-2 (Homo sapiens, UniProt P04626)
reported_result: 0.039
//
molecule: N#CC1=C(N)Oc2c(c(=O)[nH]c3ccccc23)C1c1ccccc1 (centres unmarked) [Compound 5a]
measurement_target: HER-2 (Homo sapiens, UniProt P04626)
reported_result: 0.036
//
molecule: COc1ccc(C2C(C#N)=C(N)Oc3c2c(=O)[nH]c2ccc(OC)cc32)cc1 (centres unmarked) [Compound 5h]
measurement_target: HER-2 (Homo sapiens, UniProt P04626)
reported_result: 0.023
